These entries and their values trace back to patent US20250034201A1.

Test: Measured solubility in buffer, LC-MS/MS
Format: physicochemical
Conditions: aqueous buffer, thermodynamic from solid; pH 7.4, 50 mM phosphate buffer, 16-24 hours, room temperature; read-out: Solubility pH 7.4

# compound, solubility
measured = [
    ("CC(=O)[C@H]1CC[C@H]2[C@@H]3CC[C@H]4C[C@](C)(OC(=O)COC(=O)C(C)(C)N)CC[C@]4(C)[C@H]3CC[C@]12C [Compound 218]", "152 µg/mL"),
    ("CC(=O)[C@H]1CC[C@H]2[C@@H]3CC[C@H]4C[C@](C)(OC(=O)CN)CC[C@]4(C)[C@H]3CC[C@]12C [Compound 111]", "29.1 µg/mL"),
    ("CC(=O)OCCN(CCOC(C)=O)CC(=O)OC(C)(C)C(=O)OCC(=O)O[C@]1(C)CC[C@@]2(C)[C@@H](CC[C@@H]3[C@@H]2CC[C@]2(C)[C@@H](C(C)=O)CC[C@@H]32)C1 [Compound 229]", "11 µg/mL"),
    ("CC(=O)[C@H]1CC[C@H]2[C@@H]3CC[C@H]4C[C@](C)(OC(=O)CNC(C)(C)C(=O)O)CC[C@]4(C)[C@H]3CC[C@]12C [Compound 120]", "35 µg/mL"),
]

* * *

Listed next: entries and their corresponding SIF (% remain, 60 min).
Assay: Stability in simulated intestinal fluid (SIF)
Assay type: in vitro ADME
Details: SIF with pancreatin pH 6.8, 37° C., 60 min

# compound, measure_unit, SIF (% remain, 60 min)
rows = [
    ("CC(=O)[C@H]1CC[C@H]2[C@@H]3CC[C@H]4C[C@](C)(OC(=O)CO)CC[C@]4(C)[C@H]3CC[C@]12C [Compound 201]", "%", 98.0),
    ("CC(=O)[C@H]1CC[C@H]2[C@@H]3CC[C@H]4C[C@](C)(OC(=O)COC(=O)C(C)(C)N)CC[C@]4(C)[C@H]3CC[C@]12C [Compound 218]", "%", 95),
    ("COc1ccccc1N1CCN(CC(=O)O[C@]2(C)CC[C@@]3(C)[C@@H](CC[C@@H]4[C@@H]3CC[C@]3(C)[C@@H](C(C)=O)CC[C@@H]43)C2)CC1 [Compound 100]", "%", 93.2),
    ("CC(=O)[C@H]1CC[C@H]2[C@@H]3CC[C@H]4C[C@](C)(O)CC[C@]4(C)[C@H]3CC[C@]12C [ganaxolone, Ganaxolone]", "%", 94.6),
    ("CC(=O)[C@H]1CC[C@H]2[C@@H]3CC[C@H]4C[C@](C)(OC(=O)CN)CC[C@]4(C)[C@H]3CC[C@]12C [Compound 111]", "%", 79.0),
]

* * *

Test: Pharmacokinetic study with Compound 111 (IV 5 mg/kg, PO 25 mg/kg)
Assay type: in vivo
Settings: dog, plasma; analyte Compound 111; IV 5 mg/kg Compound 111; fasted male beagle dogs; mean; read-out: Compound 111 PK C0
value_type: C0 (ng/mL)

# mol, experimental_result
rows = [
    ("CC(=O)[C@H]1CC[C@H]2[C@@H]3CC[C@H]4C[C@](C)(OC(=O)CN)CC[C@]4(C)[C@H]3CC[C@]12C", 1500),
]

* * *

Test: Pharmacokinetic study with Compound 111 (IV 5 mg/kg, PO 25 mg/kg)
Type: in vivo
Details: dog, plasma; analyte Compound 111; oral 25 mg/kg Compound 111; fasted male beagle dogs; mean; read-out: Compound 111 PK MRTInf

# compound, MRT inf
data = [
    ("CC(=O)[C@H]1CC[C@H]2[C@@H]3CC[C@H]4C[C@](C)(OC(=O)CN)CC[C@]4(C)[C@H]3CC[C@]12C [Compound 111]", "10.6 h"),
]
